- assayed-system: CCR2 (Homo sapiens)
- Construct: Membranes were prepared from THP-1 cells; endogenous in cells
- Sequence (P41597 1-360 isoform P41597-2): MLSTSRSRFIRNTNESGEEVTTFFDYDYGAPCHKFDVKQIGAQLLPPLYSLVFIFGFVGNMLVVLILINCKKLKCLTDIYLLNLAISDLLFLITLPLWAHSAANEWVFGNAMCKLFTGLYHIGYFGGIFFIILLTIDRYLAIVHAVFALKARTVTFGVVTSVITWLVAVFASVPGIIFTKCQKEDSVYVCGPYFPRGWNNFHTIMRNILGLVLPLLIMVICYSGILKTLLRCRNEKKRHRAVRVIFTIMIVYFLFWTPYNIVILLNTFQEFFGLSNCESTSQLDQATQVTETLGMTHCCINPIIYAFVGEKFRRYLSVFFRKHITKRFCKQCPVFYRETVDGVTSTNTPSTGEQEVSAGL
- assay-remarks: CCR2 receptor membrane binding assay ([125I]MCP-1, THP-1 membranes, SPA beads)
- test-settings: THP-1 cell membranes, [125I]MCP-1 displacement, dissociation constant hKi
assay-readout: pKi
Keep in mind that pKi stands for -log10 of concentration in molar terms.

Answer with the recorded pKi of COc1c(NC[C@H]2CCC[C@@H](c3ccc(OC(F)(F)F)cc3)O2)ncnc1C(=O)N1CCC(N[C@@H]2CCOC[C@@H]2OC)CC1 [Example 10k] only.
8.70

Answer with the recorded pKi of COc1c(NC[C@H]2CCC[C@@H](c3ccc(OC(F)(F)F)cc3)O2)ncnc1C(=O)N1CCC(NC2CCOCC2F)CC1 (stereo partly drawn) [Example 10m] only.
9.00

Answer with the recorded pKi of COc1c(NC[C@H]2CCC[C@@H](c3cccc(C)c3)O2)ncnc1C(=O)N1CCC(N[C@H]2CCOC[C@H]2OC)CC1 only.
7.72

Answer with the recorded pKi of COc1c(NC[C@H]2CCC[C@@H](c3ccc(C)cc3)O2)ncnc1C(=O)N1CCC(N[C@H]2CCOC[C@H]2OC)CC1 only.
7.89

Answer with the recorded pKi of CN(C1CCN(C2CCN(C(=O)c3ncnc(NCc4ccc(C(C)(C)C)cc4)c3C3CC3)CC2)CC1)S(C)(=O)=O only.
7.09

Answer with the recorded pKi of COc1c(NC[C@H]2CCC[C@@H](c3ccc(Cl)cc3)O2)ncnc1C(=O)N1CCC(N[C@H]2CCOC[C@H]2OC)CC1 [Example 10g] only.
8.15
